# assay.system: P2X7 receptor (Homo sapiens, UniProt Q99572)
# Construct: host or cells: THP-1 cells differentiated with LPS and IFN-γ
# Sequence (Q99572 1-595): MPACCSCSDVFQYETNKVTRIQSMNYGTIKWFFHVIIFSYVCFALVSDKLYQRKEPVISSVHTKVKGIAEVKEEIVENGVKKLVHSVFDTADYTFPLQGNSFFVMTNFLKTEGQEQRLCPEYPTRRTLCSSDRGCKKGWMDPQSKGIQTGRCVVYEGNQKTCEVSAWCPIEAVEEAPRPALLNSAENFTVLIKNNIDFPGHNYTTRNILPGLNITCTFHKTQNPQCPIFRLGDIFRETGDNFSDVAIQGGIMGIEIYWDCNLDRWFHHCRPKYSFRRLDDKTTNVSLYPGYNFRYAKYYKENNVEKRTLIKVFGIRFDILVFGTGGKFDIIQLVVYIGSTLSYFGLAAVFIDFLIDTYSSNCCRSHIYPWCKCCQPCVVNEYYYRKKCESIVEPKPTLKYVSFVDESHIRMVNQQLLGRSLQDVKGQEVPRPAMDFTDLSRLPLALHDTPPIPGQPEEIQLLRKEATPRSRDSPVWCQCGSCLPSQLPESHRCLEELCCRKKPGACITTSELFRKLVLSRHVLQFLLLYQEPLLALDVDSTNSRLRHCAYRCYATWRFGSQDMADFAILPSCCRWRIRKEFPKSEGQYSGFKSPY
# assay.text: Alternate method for IL-1β release assay (differentiated THP-1 cells, BzATP-stimulated, ELISA)
# Type: cell-based
# stated.conditions: P2X7; 0.1 μM compound (plus symbols); read-out: IL-1β % inhib @ 0.1 μM
parameter: inhibition at 0.1 µM

Reference set (3 entries):
compound: N#Cc1cccc(C(=O)N2CCc3c(ncnc3NCC34CC5CC(CC(C5)C3)C4)C2)c1 [Compound 97]
inhibition at 0.1 µM: > 75%
--
compound: c1ccc(CN2CCc3c(ncnc3NCC34CC5CC(CC(C5)C3)C4)C2)cc1 [Compound 1]
inhibition at 0.1 µM: > 75%
--
compound: O=C(c1cccc(F)c1)N1CCc2c(ncnc2NCC23CC4CC(CC(C4)C2)C3)C1 [Compound 83]
inhibition at 0.1 µM: > 75%

[Q] Consider the compound O=S(=O)(c1ccccc1-c1ccccc1)N1CCc2c(ncnc2NCC23CC4CC(CC(C4)C2)C3)C1 [Compound 50] and give its measured inhibition at 0.1 µM.
[A] 25 to 50%

====

# assay.system: P2X7 receptor (Homo sapiens)
# Construct: host or cells: THP-1 cells differentiated with LPS and IFN-γ
# assay.text: Alternate method for IL-1β release assay (differentiated THP-1 cells, BzATP-stimulated, ELISA)
# Assay type: cell-based
# stated.conditions: P2X7; 0.3 μM compound (asterisk symbols); read-out: IL-1β % inhib @ 0.3 μM
Catalogue of inhibition at 0.3 µM values

Reference set (4 entries):
compound: O=S(=O)(c1ccc(Cl)cc1)N1CCc2c(ncnc2NCC23CC4CC(CC(C4)C2)C3)C1 [Compound 11]
assay.system: P2X7 receptor (Homo sapiens)
inhibition at 0.3 µM: 0 to 25%
--
compound: O=C(c1ccc(OC(F)(F)F)cc1)N1CCc2c(ncnc2NCC23CC4CC(CC(C4)C2)C3)C1 [Compound 84]
assay.system: P2X7 receptor (Homo sapiens)
inhibition at 0.3 µM: 0 to 25%
--
compound: O=C(c1ccc(F)cc1F)N1CCc2c(ncnc2NCC23CC4CC(CC(C4)C2)C3)C1 [Compound 132]
assay.system: P2X7 receptor (Homo sapiens)
inhibition at 0.3 µM: 50 to 75%
--
compound: COc1ccc(-c2ccc(S(=O)(=O)N3CCc4c(ncnc4NCC45CC6CC(CC(C6)C4)C5)C3)cc2)cc1 [Compound 35]
assay.system: P2X7 receptor (Homo sapiens)
inhibition at 0.3 µM: 0 to 25%

[Q] Consider the compound O=C(C1COc2ccccc2C1)N1CCc2c(ncnc2NCC23CC4CC(CC(C4)C2)C3)C1 (centres unmarked) [Compound 160] and give its measured inhibition at 0.3 µM.
[A] > 75%

[Q] Consider the compound CS(=O)(=O)N1CCc2c(ncnc2NCC23CC4CC(CC(C4)C2)C3)C1 [Compound 3] and give its measured inhibition at 0.3 µM.
[A] 25 to 50%

[Q] Consider the compound O=S(=O)(c1ccccc1C(F)(F)F)N1CCc2c(ncnc2NCC23CC4CC(CC(C4)C2)C3)C1 [Compound 51] and give its measured inhibition at 0.3 µM.
[A] 0 to 25%

[Q] Consider the compound CC(C)(C)c1ccc(C(=O)N2CCc3c(ncnc3NCC34CC5CC(CC(C5)C3)C4)C2)cc1 [Compound 152] and give its measured inhibition at 0.3 µM.
[A] > 75%
